protocol.text: Selectivity index, ratio of IC50 for HEK293 cells to IC50 for human MCF7 cells
Type: toxicity
condition.details: HEK293 cells versus MCF7 cells, read-out: Ratio IC50
Checkbox rule: selectivity ratio lower than 7 = rule met; selectivity ratio not lower than 7 = rule not met.

Inquiry: For `COc1cc(/C=C2\S/C(=N\c3nnc(SCc4ccc(Cl)cc4Cl)s3)NC2=O)ccc1O` , is the recorded selectivity ratio below the cut-off of 7?
Reply text: rule met

Inquiry: Confirm or reject: selectivity ratio of `O=C1N/C(=N/c2nnc(SCc3ccccc3)s2)S/C1=C\c1ccc(F)cc1` lies strictly below 7
Reply text: rule not met

Inquiry: For `O=C1N/C(=N/c2nnc(SCc3ccccc3)s2)S/C1=C\c1ccc(O)cc1` , is the recorded selectivity ratio below the cut-off of 7?
Reply text: rule met

Inquiry: Below 7 on selectivity ratio? Entry `O=C1N/C(=N/c2nnc(SCc3ccc(Cl)cc3Cl)s2)S/C1=C\c1cccc(F)c1`
Reply text: rule met

Inquiry: is_below(selectivity ratio, 7) for `O=C1N/C(=N/c2nnc(SCc3ccccc3)s2)S/C1=C\c1cccc(F)c1` ?
Reply text: rule not met

Inquiry: Does `O=C1N/C(=N/c2nnc(SCc3ccc(Cl)cc3Cl)s2)S/C1=C\c1ccc(F)cc1` have selectivity ratio strictly under 7?
Reply text: rule met

Inquiry: Hello, I'm reviewing records and need to know if selectivity ratio of `COc1cc(/C=C2\S/C(=N\c3nnc(SCc4ccccc4)s3)NC2=O)ccc1O` is below 7. Could you check?
Reply text: rule met

Inquiry: Just wondering, is selectivity ratio of `O=C1N/C(=N/c2nnc(SCc3ccc(Cl)cc3)s2)S/C1=C\c1ccccc1` below 7?
Reply text: rule met

Inquiry: Say whether its selectivity ratio is strictly beneath 7. Entry: `O=C1N/C(=N/c2nnc(SCc3ccc(Cl)cc3Cl)s2)S/C1=C\c1ccc(Cl)cc1`
Reply text: rule met

Inquiry: Lab log: compare recorded selectivity ratio with 7; is it strictly lower for `O=C1N/C(=N/c2nnc(SCc3ccc(Cl)cc3Cl)s2)S/C1=C\c1ccc(O)cc1` ?
Reply text: rule met

Inquiry: Determine if `O=C1N/C(=N/c2nnc(SCc3ccccc3)s2)S/C1=C\c1ccc(Cl)cc1` shows selectivity ratio strictly lower than 7.
Reply text: rule not met

Inquiry: A record lists `COc1ccc(/C=C2\S/C(=N\c3nnc(SCc4ccc(Cl)cc4Cl)s3)NC2=O)cc1` . Is its selectivity ratio below 7?
Reply text: rule met

Inquiry: Criterion: selectivity ratio strictly below 7. Is it met by `O=C1N/C(=N/c2nnc(SCc3ccc(Cl)cc3)s2)S/C1=C\c1cccc(F)c1` ?
Reply text: rule not met

Inquiry: Input `O=C1N/C(=N/c2nnc(SCc3ccc(Cl)cc3)s2)S/C1=C\c1ccc(O)cc1` ; condition: selectivity ratio strictly below 7. Does it hold?
Reply text: rule met

Inquiry: Given the entry `COc1cc(/C=C2\S/C(=N\c3nnc(SCc4ccc(Cl)cc4)s3)NC2=O)ccc1O` , would its reported selectivity ratio be below 7?
Reply text: rule met

Inquiry: Bench note: check whether `O=C1N/C(=N/c2nnc(SCc3ccc(Cl)cc3)s2)S/C1=C\c1ccc(Cl)cc1` shows selectivity ratio below 7
Reply text: rule met

Inquiry: # check: selectivity ratio < 7 for `COc1ccc(/C=C2\S/C(=N\c3nnc(SCc4ccc(Cl)cc4)s3)NC2=O)cc1`
Reply text: rule not met

Inquiry: Quick check: does `COc1ccc(/C=C2\S/C(=N\c3nnc(SCc4ccccc4)s3)NC2=O)cc1` have selectivity ratio under 7?
Reply text: rule met

Inquiry: Lab log: compare recorded selectivity ratio with 7; is it strictly lower for `O=C1N/C(=N/c2nnc(SCc3ccc(Cl)cc3Cl)s2)S/C1=C\c1ccccc1` ?
Reply text: rule met

Inquiry: Confirm or reject: selectivity ratio of `O=C1N/C(=N/c2nnc(SCc3ccc(Cl)cc3)s2)S/C1=C\c1ccc(F)cc1` lies strictly below 7
Reply text: rule not met

# credit: ChEMBL document CHEMBL6083226
